Measured Mean % WT Binding, listed per entry for reference.
Biological target: human CD33 variant S131G (human, UniProt P20138 18-364)
Sequence (P20138 18-364 S131G limits assumed): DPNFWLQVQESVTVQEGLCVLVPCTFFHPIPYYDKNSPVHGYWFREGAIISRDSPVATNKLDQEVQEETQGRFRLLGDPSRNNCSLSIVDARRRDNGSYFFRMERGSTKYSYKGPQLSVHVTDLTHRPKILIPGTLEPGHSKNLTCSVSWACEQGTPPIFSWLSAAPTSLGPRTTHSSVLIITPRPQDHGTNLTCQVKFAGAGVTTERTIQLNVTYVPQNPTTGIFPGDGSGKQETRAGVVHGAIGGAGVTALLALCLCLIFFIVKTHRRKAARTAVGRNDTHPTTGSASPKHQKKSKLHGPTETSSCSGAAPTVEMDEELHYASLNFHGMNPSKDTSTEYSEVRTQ
Assay: flow cytometry, IgG on cells expressing the mutant

Below are worked cases with known answers.
Refmab #3 (antibody, human IgG1, V domains shown, Tested in IgG format; human IgG1 Fc silent (PG-LALA)) VH: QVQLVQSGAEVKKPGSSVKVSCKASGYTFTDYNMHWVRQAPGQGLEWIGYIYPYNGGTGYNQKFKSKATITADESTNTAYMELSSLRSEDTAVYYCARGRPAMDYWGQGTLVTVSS VL: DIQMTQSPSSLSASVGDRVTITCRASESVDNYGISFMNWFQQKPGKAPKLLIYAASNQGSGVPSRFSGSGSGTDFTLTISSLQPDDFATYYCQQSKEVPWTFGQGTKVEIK : 100 % of WT
Refmab #2 (antibody, human IgG1, V domains shown, Tested in IgG format; human IgG1 Fc silent (PG-LALA)) VH: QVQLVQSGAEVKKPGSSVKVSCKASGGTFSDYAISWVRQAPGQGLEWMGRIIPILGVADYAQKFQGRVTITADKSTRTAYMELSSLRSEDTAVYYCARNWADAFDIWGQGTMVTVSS VL: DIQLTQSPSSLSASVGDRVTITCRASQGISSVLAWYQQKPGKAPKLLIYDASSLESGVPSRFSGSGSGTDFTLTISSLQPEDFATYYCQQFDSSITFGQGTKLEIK : 112 % of WT
Refmab #4 (antibody, human IgG1, V domains shown, Tested in IgG format; human IgG1 Fc silent (PG-LALA)) VH: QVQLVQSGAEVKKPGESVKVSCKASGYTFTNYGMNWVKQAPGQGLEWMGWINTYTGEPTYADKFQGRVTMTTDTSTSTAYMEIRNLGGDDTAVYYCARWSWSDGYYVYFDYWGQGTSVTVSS VL: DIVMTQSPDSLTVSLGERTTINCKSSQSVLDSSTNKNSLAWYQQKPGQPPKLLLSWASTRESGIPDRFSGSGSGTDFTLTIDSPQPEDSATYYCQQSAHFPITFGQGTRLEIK : 96.9 % of WT

Query binder follows.
Exercise: Given the entry Refmab #1 (antibody, human IgG1, V domains shown, Tested in IgG format; human IgG1 (Absolute Antibody hP67.6, Cat. No. Ab00283-10.0); also called hP67.6) VH: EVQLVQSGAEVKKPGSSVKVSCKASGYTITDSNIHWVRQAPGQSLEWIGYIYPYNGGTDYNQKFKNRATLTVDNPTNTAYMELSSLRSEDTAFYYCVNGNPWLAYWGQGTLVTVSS VL: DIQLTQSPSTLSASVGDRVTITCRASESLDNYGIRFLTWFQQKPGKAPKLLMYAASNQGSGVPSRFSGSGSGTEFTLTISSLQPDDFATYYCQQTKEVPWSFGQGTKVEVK , report its measured Mean % WT Binding.
Solution: 95.1 % of WT

Values were extracted from patent US20260242735A1.
